test method notes: Nrf2 qHTS screen for inhibitors; further: nearly all actives have a fitted effect of over 60% in size; further: potency means the concentration at half of the fitted maximal effect
applied conditions: A549 ARE-Fluc reporter, luciferase luminescence, 18-24 h; series mostly up to 46 µM
Out of some 360,000 compounds screened, about 7,500 (2.1%) were called active. About 20% were inconclusive and are not listed. This excerpt belongs to a sample that is enriched for actives.
metric name: Potency

Reference set (10 entries):
> print(dat)
                                    compound  metric.name      assay.result
 1  COc1ccc(N2CCN(Cc3nc4c(c(=O)[nH]c(=O)n4C)n3Cc3ccc(Cl)cc3)CC2)cc1      Potency          inactive
 2  O=C(Nc1ccc(S(=O)(=O)Nc2nccs2)cc1)c1cccc(S(=O)(=O)N2CCOCC2)c1      Potency          inactive
 3             CCCCCCCCNS(=O)(=O)CCNC1CCCCC1      Potency          inactive
 4  O=C(Nc1cc(S(=O)(=O)Nc2ccc(Cl)cc2)ccc1O)c1ccc(F)cc1F      Potency          inactive
 5              C=CCOC(=O)c1ccccc1C(=O)OCC=C      Potency          inactive
 6  COc1ccc2c(c1)c(N1CCCC1=O)c(C(=O)Nc1ccccc1C(F)(F)F)n2C      Potency          inactive
 7  O=C(CN1CCN(c2nc(-c3ccccc3)cs2)CC1)NCc1ccc2c(c1)OCO2      Potency  23.1 µM (active)
 8              Cc1cc(C)c(SCCc2ccncc2)c(C)c1      Potency  16.4 µM (active)
 9  C=CCOC(=O)C1=C(C)NC(C)=C(C(=O)OCC=C)C1c1cccs1      Potency  20.6 µM (active)
10             CCN(Cc1ccncc1)C(=O)CCc1ccccc1      Potency          inactive

Please turn your attention to the following entry.
Asked: Any idea what its Potency is? The compound is CCOC(=O)C1=C(C)NC(=S)NC1c1cccs1 (stereo unspecified)
Given back: inactive

---

test method notes: Nrf2 qHTS screen for inhibitors; further: nearly all actives have a fitted effect of over 60% in size; further: potency means the concentration at half of the fitted maximal effect
applied conditions: A549 ARE-Fluc reporter, luciferase luminescence, 18-24 h; series mostly up to 46 µM
Hit rate of the full screen: of about 360,000 compounds, about 7,500 (2.1%) were called active. About 20% were inconclusive and are not listed. The sample holds actives, similar compounds and a random draw of the others, so the mix is not that of the screen.
metric name: Potency

> print(dat)
                                   molecule      assay.result
1  O=C(NCC1CCCO1)c1ccc(S(=O)(=O)Nc2ccc(F)cc2)cc1 (stereo not drawn)          inactive
2    N#CC(C#N)=CN=c1ccn(Cc2ccc(Cl)cc2Cl)cc1  1.84 µM (active)
3  CC(C)(C)c1cc(C(=O)NN)n(Cc2ccc(Cl)cc2Cl)n1          inactive
4    CNC(=O)c1sc(Nc2ccc(OCc3ccccc3)cc2)nc1C  20.6 µM (active)
5  COc1ccc(S(=O)(=O)NCc2cccnc2)cc1NC(=O)c1ccc(C)cc1          inactive

Asked: Any idea what its Potency is? The molecule is `CCc1ccnc(NC(=O)Nc2ccc(OCc3ccccc3)cc2)c1`
Given back: inactive

Asked: # iterate: `COc1ccc(Cl)cc1C=CC=Nc1ccc(S(N)(=O)=O)cc1`
Given back: inactive

Asked: # iterate: `O=c1ccn(Cc2ccccc2Cl)cc1`
Given back: inactive

Asked: # iterate: `Cc1cccc(NC(=O)c2cccnc2Cl)n1`
Given back: inactive

Asked: # iterate: OCC(O)C1OCOC(C(O)CO)C1O (stereo not drawn)
Given back: inactive

Asked: # iterate: `O=C(O)/C=C\C(=O)Nc1ccc(OCc2ccccc2)cc1`
Given back: inactive

Asked: # iterate: `CCN(CC)S(=O)(=O)c1ccc(NC(=O)c2cccnc2Cl)c(NC(=O)c2cccnc2Cl)c1`
Given back: 20.6 µM (active)

Asked: # iterate: `Cc1cccc(NS(=O)(=O)c2ccc([N+](=O)[O-])cc2)n1`
Given back: inactive

Asked: # iterate: `Cc1ccc(C(=O)Nc2cc3c(cc2N2CCCC2)n(C)c(=O)c(=O)n3C)cc1`
Given back: inactive

Asked: # iterate: CCOC(=O)C1=CN(Cc2ccc(Br)cc2)S(=O)(=O)N(C)C1C (stereo not drawn)
Given back: inactive

Asked: # iterate: `Cc1ccccc1OCc1ccc(-c2nc(C#N)c(N3CCCCC3)o2)o1`
Given back: inactive

Asked: # iterate: `CCn1c(C(=O)Nc2cc(Cl)ccc2C)cc2sc(Cl)cc21`
Given back: inactive

Asked: # iterate: `O=[N+]([O-])c1ccc(NS(=O)(=O)c2ccccc2)c(Cl)c1`
Given back: 11.6 µM (active)

Asked: # iterate: `CCN(C(=O)c1sc2cc(OC)ccc2c1Cl)c1ccccc1`
Given back: inactive
